Here, each record is paired with measured AC50 data.
Molecular target: human PAH with the R408W mutation (Homo sapiens, UniProt P00439, R408W)
Construct: expressed in transfected cells
Sequence (P00439 1-452 R408W): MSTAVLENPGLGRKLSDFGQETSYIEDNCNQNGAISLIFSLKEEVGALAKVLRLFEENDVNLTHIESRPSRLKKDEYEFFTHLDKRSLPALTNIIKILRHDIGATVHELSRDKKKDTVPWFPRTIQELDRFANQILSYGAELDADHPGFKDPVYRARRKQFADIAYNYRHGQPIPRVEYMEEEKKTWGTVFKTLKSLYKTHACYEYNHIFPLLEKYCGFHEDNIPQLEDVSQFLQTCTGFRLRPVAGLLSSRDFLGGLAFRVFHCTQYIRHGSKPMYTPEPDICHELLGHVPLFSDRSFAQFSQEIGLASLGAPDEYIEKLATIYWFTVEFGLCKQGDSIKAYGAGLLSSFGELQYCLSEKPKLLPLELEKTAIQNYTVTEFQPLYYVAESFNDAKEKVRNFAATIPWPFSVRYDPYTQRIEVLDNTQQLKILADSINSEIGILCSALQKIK
Test: Cell Based Phenylalanine Flux Assay;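 further: after compound treatment, cells received sepiapterin plus isotope-labelled Phenylalanine for 4 hours, then labelled Tyrosine in the medium was quantified, 10-point 2-fold dilution series run in duplicate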
Conditions: A375 cells expressing human R408W PAH; 24 hrs compound incubation; 13C-Tyrosine by LC-MS; average where tested multiple times; read-out: AC50
ATTRIBUTE_MEASURED: AC50

# COMPOUND, VALUE_OBSERVED
data = [
    ("Cc1cnn(C)c1-c1nnc(C(=O)N2CCc3[nH]cnc3[C@H]2c2cc3c(C)cccn3n2)o1", "< 0.5 µM"),
    ("CC1(c2nnc(C(=O)N3CCc4[nH]cnc4[C@@H]3c3cc4cccc(Cl)n4n3)o2)CC1", "1 to 5 µM"),
    ("FC(F)(F)c1cccc2cc([C@@H]3c4nc[nH]c4CCN3c3ncccn3)nn12", "0.5 to 1 µM"),
    ("Cn1ccc(-c2ccc3c(C(=O)N4CCc5[nH]cnc5[C@H]4c4cc5c(F)cccn5n4)cnn3c2)n1", "0.5 to 1 µM"),
    ("Cn1ccc(-c2nnc(C(=O)N3CCc4[nH]cnc4[C@H]3c3cc4c(C(F)(F)F)cccn4n3)o2)n1 (single isomer, unassigned)", "< 0.5 µM"),
    ("O=C(c1nnc(-c2cccnc2)o1)N1CCc2[nH]cnc2[C@@H]1c1cc2c(Cl)cccn2n1", "1 to 5 µM"),
    ("O=C(c1nnc(-c2cccnc2)o1)N1CCc2[nH]cnc2[C@H]1c1cc2c(F)cccn2n1", "< 0.5 µM"),
]

src = patent US20230365592A1
